FYI, the data here is from PubChem BioAssay AID328.

Tested on: BDF1 mice, P388 leukemia ip, median survival T/C
Experiment: NCI In Vivo Anticancer Drug Screen. Data for tumor model P388 Leukemia (intraperitoneal) in B6D2F1 (BDF1) mice
Settings: endpoint: median survival time; dose: 100.0 mg/kg/injection; schedule: Q01DX001 (ip); vehicle: Klucel (hydroxypropylcellulose) (HPC)
Inconclusive results and toxic doses are left out. How the source made its calls: active means survival T/C of 150% or more; inactive means T/C below 125% in these data.
Pick one: active, inactive

Completed entries (count: 8):
compound	label-class
c1ccc(SC23CC4CC(CC(C4)C2)C3)nc1	inactive
O=C(O)CNOCN1C(=O)c2ccccc2C1=O	inactive
CC[C@@]12CCCN3CC[C@]4(c5cccc(OC)c5N(C(C)=O)[C@@H]4CC1)[C@H]32	inactive
COC(OC)c1[nH]c(=S)[nH]c(=O)c1Cc1cccc(Cl)c1	inactive
O=C(CC(=O)C(F)(F)F)c1csc2ccccc12	inactive
O=C(c1ccccc1)C1CC1c1ccccc1 (centres undefined)	inactive
CC(=O)OC12C3CCCC1CCCC2CCC3 (centres undefined)	inactive
CCCCN(CCCC)CC(O)c1ccnc2cc3c(cc12)OCO3 (centres undefined)	inactive

Data request: Kindly provide the recorded test outcome for the following compound: O[O][Ge]([c]1ccccc1)([c]1ccccc1)[c]1ccccc1
Data returned: inactive

Data request: Kindly provide the recorded test outcome for the following compound: COc1ccc(C=NCCN=Cc2ccc(OC)cc2)cc1
Data returned: inactive

Data request: Kindly provide the recorded test outcome for the following compound: O=P1(N(CCCl)CCCl)NC(OOC2CCOP(=O)(N(CCCl)CCCl)N2)CCO1 (centres undefined)
Data returned: active

Data request: Kindly provide the recorded test outcome for the following compound: O=[N+]([O-])c1cccc(/C=C/c2ccccc2)c1
Data returned: inactive

Data request: Kindly provide the recorded test outcome for the following compound: CC(C)OC(=S)SSC(=S)OC(C)C
Data returned: inactive

Data request: Kindly provide the recorded test outcome for the following compound: Cc1ccc(COC(=O)c2ccccc2)cc1
Data returned: inactive

---

T/C reference
Tested on: BDF1 mice, P388 leukemia ip, median survival T/C
Assay: NCI In Vivo Anticancer Drug Screen. Data for tumor model P388 Leukemia (intraperitoneal) in B6D2F1 (BDF1) mice
Details: endpoint: median survival time; dose: 200.0 mg/kg/injection; schedule: Q04DX003 (ip); vehicle: Klucel (hydroxypropylcellulose) (HPC); higher = longer survival
Method: The antitumor activity of compounds was measured in mice bearing transplantable tumors. Survival or tumor size were measured and the results are expressed as the measurement made in the treated group (T) divided by the measurement made in the vehicle treated control group (C). The tumor model used in this assay is P388 Leukemia (intraperitoneal) in B6D2F1 (BDF1) mice
Toxic doses and inconclusive results are not listed.

compound	T/C
O=C1c2ccccc2C(=O)c2cc3cc(Cl)ccc3cc21	90 % of control

Data request: I am curious: what T/C value has been reported for CC(C)(C)C1CCC(O)C(Cl)C1 (centres undefined) ?
Data returned: 109 % of control

Data request: I am curious: what T/C value has been reported for Cc1cc(C)c(-c2c(C)cc(C)c(C(=O)c3ccc([N+](=O)[O-])cc3)c2C)c(C)c1C(=O)c1ccc([N+](=O)[O-])cc1 ?
Data returned: 100 % of control

Data request: I am curious: what T/C value has been reported for Oc1ccc(C2CCCCC2)c(O)c1 ?
Data returned: 91 % of control

Data request: I am curious: what T/C value has been reported for CC(C)OC(=S)SSC(=S)OC(C)C ?
Data returned: 118 % of control

Data request: I am curious: what T/C value has been reported for Cc1ccc(NCC2(/N=C/c3ccccc3)OC(CO)C(O)C2O)cc1 (centres undefined) ?
Data returned: 107 % of control

Data request: I am curious: what T/C value has been reported for O=C(O)c1c(Cl)c(Cl)c(Cl)c(C(=O)O)c1Cl ?
Data returned: 100 % of control

Data request: I am curious: what T/C value has been reported for O=[N+]([O-])c1cc([N+](=O)[O-])c(Cl)cc1Cl ?
Data returned: 92 % of control

Data request: I am curious: what T/C value has been reported for O=[N+]([O-])c1cc2c3ccccc3ccc2c2ccccc12 ?
Data returned: 100 % of control

Data request: I am curious: what T/C value has been reported for COC(OC)c1[nH]c(=S)[nH]c(=O)c1Cc1cccc(Cl)c1 ?
Data returned: 100 % of control

Data request: I am curious: what T/C value has been reported for COC(=O)CCCCC(=O)OCC#CC#CCOC(=O)CCCCC(=O)OC ?
Data returned: 104 % of control

Data request: I am curious: what T/C value has been reported for CNC(=S)N(N)c1ccccc1 ?
Data returned: 95 % of control
